Please go through the items and note down their TGI.
Test system: PC-3 prostate
TEST_PROTOCOL: NCI tumour cell line growth inhibition, 48 h

Example results:
{"COMPOUND": "Nc1nc(Nc2ccc(Cl)cc2)sc1C(=O)c1cc2ccccc2oc1=O", "ASSAYED_SYSTEM": "PC-3 prostate", "TGI": "> 100 µM"}
{"COMPOUND": "Nc1ncnc2c1ncn2CC(OCP(=O)(O)O)Oc1ccccc1 (stereo unspecified)", "ASSAYED_SYSTEM": "PC-3 prostate", "TGI": "> 100 µM"}
{"COMPOUND": "O=C1OC(c2ccc([N+](=O)[O-])cc2)=N/C1=C\\c1ccc(O)cc1", "ASSAYED_SYSTEM": "PC-3 prostate", "TGI": "> 100 µM"}
{"COMPOUND": "c1ccc(C2CC(N3CCOCC3)=Nc3ccccc3N2)cc1 (stereo unspecified)", "ASSAYED_SYSTEM": "PC-3 prostate", "TGI": "> 100 µM"}
{"COMPOUND": "Cc1c(-c2ccccc2)n(C)c2cn[nH]c(=O)c12", "ASSAYED_SYSTEM": "PC-3 prostate", "TGI": "51.3 µM"}

I would be grateful if you could provide TGI for each of the following entries.
1. OC[C@H]1CC(c2nn[nH]n2)[C@H](O)[C@@H]1O (stereo partly specified)
2. C#C[C@]1(O)CC[C@H]2[C@@H]3CC=C4c5nc(Nc6ccc(OC)cc6OC)sc5CC[C@]4(C)[C@H]3CC[C@@]21C
3. CN(C)CCCC1(c2ccc(F)cc2)OCc2cc(-c3ccc4cc[nH]c4c3)ccc21 (stereo unspecified)
4. CS(=O)(=O)C(=Cc1ccccc1Cl)S(C)(=O)=O
5. Nc1nc(Cl)cc(Nc2ccc3c(c2)CCC3)n1
6. O=C(O)[C@@H]1C[C@@H](O)CN1

Key:
["> 100 µM", "9.02 µM", "5.36 µM", "> 100 µM", "> 100 µM", "> 100 µM"]

Batch of 8 compounds: report TGI for each.
1. CNC(=O)N(CCC#N)CCN(CCN(C(=O)NC)c1ccccc1)C(=O)NC
2. O=C(Oc1ccc([N+](=O)[O-])cc1)N1CCC(C(O)(c2ccc3c(c2)OCO3)c2ccc3c(c2)OCO3)CC1
3. COc1cc2cc(C(=O)N3CC(COS(C)(=O)=O)c4c3cc([N+](=O)[O-])c3ccccc43)[nH]c2c(OC)c1OC (stereo unspecified)
4. O=C(Nc1ccc(-n2cc(-c3ccncc3)c(-c3ccc(Cl)c(O)c3)n2)cc1)c1cc(Cl)cc(Cl)c1
5. N#Cc1ccc(-n2cnc(NC(=O)[C@H]3CCN(C#N)C3)c2)cc1
6. C=CC1=C(C)C2=NC1=CC1=NC(=C(CC)/C1=C/O)C=C1C=C3C(=O)C(C(=O)OC)C(=C4NC(=C2)C(C)C4CCC(=O)OC/C=C(\C)CCCC(C)CCCC(C)CCCC(C)C)C3=N1 (stereo unspecified) (tested in a mixture with another compound)
7. Cn1cc(-c2ccc(CCOC3CCCCO3)cc2)c2c(C#N)cccc21 (stereo unspecified)
8. CN1c2ccccc2C2c3c(O)ccc(O)c3C=C([N+](=O)[O-])C21 (stereo unspecified)

Key:
1: > 100 µM; 2: > 100 µM; 3: > 31.6 µM; 4: > 100 µM; 5: 20.2 µM; 6: > 100 µM; 7: > 100 µM; 8: 4.79 µM
